Hello, the source for this data is ChEMBL document CHEMBL1131042, in case you need it.

# TARGET_DESC: Neutrophil elastase (Homo sapiens)
# Sequence (P08246 whole entry): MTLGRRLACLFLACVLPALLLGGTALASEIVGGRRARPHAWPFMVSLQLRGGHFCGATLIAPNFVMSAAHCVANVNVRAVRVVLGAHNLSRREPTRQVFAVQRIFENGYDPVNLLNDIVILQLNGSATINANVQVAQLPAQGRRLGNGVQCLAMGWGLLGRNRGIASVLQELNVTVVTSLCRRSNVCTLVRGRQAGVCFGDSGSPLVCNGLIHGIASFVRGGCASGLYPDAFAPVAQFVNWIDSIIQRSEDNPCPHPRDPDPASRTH
# TEST_DESCRIPTION: Compound was tested for its activity against human leukocyte elastase(HLE)
QUANTITY: IC50 (nM)

P. C=CC[C@@H]1C(=O)N(C(=O)NCc2ccncc2)[C@H]1Cc1ccccc1
Q. CC1(C)C(=O)N(C(=O)NCc2ccncc2)[C@H]1Cc1ccccc1
R. CO[C@@H]1C(=O)N(C(=O)NCc2ccncc2)[C@H]1Cc1ccccc1
*Q* Sort the 3 molecules by IC50; largest first, smallest last. Form entry: ranked labels (order as requested).
*A* Q, R, P

====

We begin with a simple list: items and their reported half-life.
# TEST_DESCRIPTION: Time taken to reduce 50% of the concentration of compound in blood plasma
# Format: ADME, tissue-based
# EXPERIMENTAL_CONTEXT: human

# annotated cases, reported half-life shown
*Q* half-life lookup needed for O=C1C[C@H](Cc2ccccc2)N1C(=O)Nc1ccccc1 , thanks.
*A* < 12 h

*Q* Moving on to the next molecule: CON(Cc1ccccc1)C(=O)N1C(=O)C[C@@H]1Cc1ccccc1
*A* < 12 h

*Q* Moving on to the next molecule: O=C1C[C@H](Cc2ccccc2)N1C(=O)N(Cc1ccccc1)OCc1ccccc1
*A* < 12 h

*Q* Moving on to the next molecule: CO[C@@H]1C(=O)N(C(=O)NCc2ccncc2)[C@H]1Cc1ccccc1
*A* < 12 h

Moving on to another molecule below.
*Q* half-life lookup needed for CS[C@@H]1C(=O)N(C(=O)NCc2ccncc2)[C@H]1Cc1ccccc1 , thanks.
*A* < 12 h
